target-system: T1, TNFR1 (Homo sapiens, UniProt P19438)
T1 chain: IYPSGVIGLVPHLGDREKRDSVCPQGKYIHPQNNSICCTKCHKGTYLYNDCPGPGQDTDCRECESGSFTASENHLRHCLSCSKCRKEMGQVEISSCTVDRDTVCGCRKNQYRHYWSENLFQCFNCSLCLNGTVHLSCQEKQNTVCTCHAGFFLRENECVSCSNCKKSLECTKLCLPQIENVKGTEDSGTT
run-description: yeast display SC50
observable: apparent Kd (screen) (nM)
The reply should be a number in nM, with the unit left off.

*Q* Given the binder F20E (designed binder) MTLQELLREEALRRAEAEAERYALELLAEKFPEQKEYLLDLAEEIESQIRSLSGVDVEDVRKFLDKEWAWVKELLAEHPAELAEVEAARAARLAELRAEVEAKVAA , what is its reported apparent Kd (screen)?
*A* 5.31

*Q* Can you handle L7C (designed binder) MTLQELCREEALRRAEAEAFRYALELLAEKFPEQKEYLLDLAEEIESQIRSLSGVDVEDVRKFLDKEWAWVKELLAEHPAELAEVEAARAARLAELRAEVEAKVAA next?
*A* 8.56

*Q* Similarly, D56A (designed binder) MTLQELLREEALRRAEAEAFRYALELLAEKFPEQKEYLLDLAEEIESQIRSLSGVAVEDVRKFLDKEWAWVKELLAEHPAELAEVEAARAARLAELRAEVEAKVAA ?
*A* 2.05

*Q* Another binder to look at: E36T (designed binder) MTLQELLREEALRRAEAEAFRYALELLAEKFPEQKTYLLDLAEEIESQIRSLSGVDVEDVRKFLDKEWAWVKELLAEHPAELAEVEAARAARLAELRAEVEAKVAA
*A* 2.25
